assay: inhibitors of TNFa-induced NFkB p65 translocation, primary screen, imaging, HUVEC, MLSMR starter and 10KST1 sets (AID 438); conditions: HUVEC TNFa-induced p65 nuclear translocation; measured here: nuclei count (cytotoxicity indicator), at 2.08 µM;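 note: compound added about 3h40 before a 20 min TNFalpha stimulation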
Parameter: cell count. Scope: all listed entries.
Give only the figure.

Incoming: Query: cell count; subject: "c1ccc2c(CC3=NCCN3)cccc2c1"
Outgoing: 547

Incoming: Query: cell count; subject: "N#Cc1nc(-c2cccs2)oc1NCCN1CCOCC1"
Outgoing: 666

Incoming: Query: cell count; subject: "COc1ccccc1-n1c(=O)c2c3c(sc2n2c(SC)nnc12)CCC3"
Outgoing: 612
